Measured values drawn from patent US10183938B2 for this set.

Target: human α7 nAChRs transiently expressed in Xenopus laevis oocytes (Homo sapiens (Human))
Sequence (P36544 23-502 limits assumed): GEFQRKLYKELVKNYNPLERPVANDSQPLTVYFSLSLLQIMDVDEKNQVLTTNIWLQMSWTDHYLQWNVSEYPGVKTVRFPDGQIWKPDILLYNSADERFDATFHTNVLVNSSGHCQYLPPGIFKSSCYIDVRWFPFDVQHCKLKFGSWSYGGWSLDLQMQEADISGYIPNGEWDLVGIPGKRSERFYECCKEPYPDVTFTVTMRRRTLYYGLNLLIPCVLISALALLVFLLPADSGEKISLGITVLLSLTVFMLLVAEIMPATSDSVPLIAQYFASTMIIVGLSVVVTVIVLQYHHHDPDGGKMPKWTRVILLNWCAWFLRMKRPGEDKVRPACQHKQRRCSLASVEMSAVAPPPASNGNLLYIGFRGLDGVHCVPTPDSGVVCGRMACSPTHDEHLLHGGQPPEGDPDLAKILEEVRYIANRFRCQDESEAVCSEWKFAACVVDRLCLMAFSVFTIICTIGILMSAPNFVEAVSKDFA
Assay: Oocyte electrophysiology screen (TEVC)
Assay type: cell-based
Details: 0.01 mM test compound, peak current relative to 0.2 mM ACh
Counter-ions that a name gives are not always drawn.

# MOLECULE, % ACh @ 10 μM Oocyte / % ACh
rows = [
    ("CC1(C)[C@H](NC(=O)c2cc3ccc(F)cc3s2)C2CCN1CC2 [(R)-8, hydrochloride]", 480),
    ("CC1(C)[C@H](NC(=O)c2cc3cccnc3s2)C2CCN1CC2 [(R)-28, hydrochloride]", 321),
    ("CC1(C)[C@H](NC(=O)c2cc3ccc(Cl)cc3s2)C2CCN1CC2 [(R)-12, hydrochloride]", 765),
    ("Cc1coc2ccc(C(=O)N[C@@H]3C4CCN(CC4)C3(C)C)cc12 [(R)-40, hydrochloride]", 517),
    ("CC1(C)[C@H](NC(=O)c2cc3ccc(Cl)c(Cl)c3s2)C2CCN1CC2 [(R)-109, hydrochloride]", 432),
    ("CC1(C)[C@H](NC(=O)c2cc3cccc(Cl)c3o2)C2CCN1CC2.Cl [(R)-217]", 473),
    ("Cc1nc2ccc(C(=O)N[C@@H]3C4CCN(CC4)C34CC4)cc2o1 [(R)-86]", 67),
    ("COc1cccc2cc(C(=O)N[C@@H]3C4CCN(CC4)C34CC4)sc12 [(R)-161, hydrochloride]", 493),
]
